# assayedSystem: hemolytic activity of SaroL-1 on rabbit erythrocytes (Salpingoeca rosetta)
# Sequence (F2UID9 1-329): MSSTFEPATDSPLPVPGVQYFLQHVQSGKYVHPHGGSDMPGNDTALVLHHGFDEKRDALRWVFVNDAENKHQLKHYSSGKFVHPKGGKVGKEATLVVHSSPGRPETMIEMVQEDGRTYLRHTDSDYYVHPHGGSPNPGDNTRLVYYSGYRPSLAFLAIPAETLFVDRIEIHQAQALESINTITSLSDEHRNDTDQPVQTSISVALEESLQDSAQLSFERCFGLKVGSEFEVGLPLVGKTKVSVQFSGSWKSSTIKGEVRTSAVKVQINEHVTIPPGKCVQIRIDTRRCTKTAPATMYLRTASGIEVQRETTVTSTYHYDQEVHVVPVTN
# assayName: Inhibition of hemolytic activity (IHA) of SaroL-1 by carbohydrates
# Assay type: cell-based
# conditionLabel: sugar 1.6 mM, SaroL-1 217 nM; read-out: Mean % inhibition of hemolysis
Measured inhibition, listed per entry for reference.
Quick reminder: number only, in %, skip the unit.

Worked set:
CC(=O)N[C@H]1C(O)O[C@H](CO)[C@H](O)[C@@H]1O (stereo partly drawn) [GalNAc, N-acetylgalactosamine] | 27.3
O=[N+]([O-])c1ccc(O[C@H]2O[C@H](CO)[C@H](O)[C@H](O)[C@H]2O)cc1 [PNPG, p-nitrophenyl-α-D-galactopyranoside] | 24.5

Now examine the next entry.
Request: Reported inhibition for hemolytic activity of SaroL-1 on rabbit erythrocytes (Salpingoeca rosetta), given OC[C@H]1O[C@H](OCC2O[C@@H](O)[C@H](O)[C@@H](O)[C@@H]2O)[C@H](O)[C@@H](O)[C@H]1O (stereo partly drawn) [melibiose] ?
Response: 54.5
